assayTarget: NADPH oxidase 2 (Homo sapiens) (UniProt P04839)
Sequence (P04839 whole entry, looked up): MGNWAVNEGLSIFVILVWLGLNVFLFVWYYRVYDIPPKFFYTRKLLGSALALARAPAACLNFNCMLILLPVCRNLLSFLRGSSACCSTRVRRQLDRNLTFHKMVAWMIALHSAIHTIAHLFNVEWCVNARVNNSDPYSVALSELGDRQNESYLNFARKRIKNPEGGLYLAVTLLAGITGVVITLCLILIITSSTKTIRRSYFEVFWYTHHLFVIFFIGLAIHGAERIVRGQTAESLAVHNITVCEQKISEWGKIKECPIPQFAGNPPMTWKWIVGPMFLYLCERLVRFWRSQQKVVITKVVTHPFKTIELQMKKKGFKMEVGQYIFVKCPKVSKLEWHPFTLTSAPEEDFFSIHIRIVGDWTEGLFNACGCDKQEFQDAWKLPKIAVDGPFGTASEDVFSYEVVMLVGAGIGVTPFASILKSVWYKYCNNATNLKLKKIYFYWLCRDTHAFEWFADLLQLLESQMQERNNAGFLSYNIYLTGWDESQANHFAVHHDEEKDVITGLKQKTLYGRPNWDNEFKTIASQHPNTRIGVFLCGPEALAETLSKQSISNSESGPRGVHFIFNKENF
testMethodNotes: NOX2-dependent H2O2 signal modulators, primary screen, NOX inhibitor project, cell-based, HEK293-NOX2, PMA-stimulated, Amplex Red fluorescence (AID 1159); note: test concentration not given here
assayContext: 45 min, higher = more signal, called active from +8 up or from −8 down
Is z-score at least 0.1? Then 1. If not, 0.

Worked examples, 5 compounds total:
compound	group
CCCCCN1CC=CC23O[C@@H]4/C=C\CCC(C)OC(=O)C4[C@H]2C(=O)N(C(C)CO)[C@@H]3C1=O (some centres not stated)	1
C=CCC(OC(C)=O)[C@@H]1[C@@H](N(Cc2ccc(-c3cccc(C(F)(F)F)c3)o2)C(=O)c2ccc(C)cc2)c2cc(OCCCO)ccc2N1C(=O)Cc1ccc2ccccc2c1 (some centres not stated)	0
COC(=O)[C@@]1(Cc2ccc(OC)cc2)[C@@H]2C(=CC(=O)[C@H]2CC(=O)C(=O)N2CCCC2)CN1C(=O)c1ccccc1	1
CNS(=O)(=O)c1ccc(C)cc1	1
CC1(C)[C@@H]2CC(C(O)C3C=CC4C(=O)N(c5ccccc5)C(=O)C4N3Nc3ccc([N+](=O)[O-])cc3)=C[C@H]1C2 (some centres not stated)	0

Challenge: # bool: z-score of `COCCOC(=O)N1C(=O)[C@@]2(c3ccccc31)[C@H](C(=O)N1CCc3cc(OC)c(OC)cc3C1)[C@H]1C(=O)O[C@H](c3ccccc3)[C@H](c3ccccc3)N1[C@@H]2c1ccc(OCCO)cc1` >= 0.1
Response given: 1

Challenge: Then this compound: CN1C=C(C(=O)OCCS(C)(=O)=O)C(C(=O)OCCS(C)(=O)=O)=CC(c2ccc(CO)cc2)=CC1C1CC1 (configuration not stated)
Response given: 0
